# credit: patent US20240247080A1

- study-system: human GLP-1 receptor (human, UniProt P43220 24-463)
- method-notes: cell-based or functional assay
Starred links: 1 amine or outer side, 2 acyl side, 3 side chain; linkers in the order of their positions; H or OH if unused. Non-standard residues stand in square brackets, D forms with d. Groups on a side chain read outwards from the residue. No end group written: not given here. *: point of attachment. C18 diacid = O=C(O)CCCCCCCCCCCCCCCCC(=O)*; γGlu = O=C(O)[C@H](CCC(=O)[*:2])N[*:1]; εLys = N[C@@H](CCCCN[*:1])C(=O)[*:2]; Aib = CC(C)(N)C(=O)O
quantity-kind: EC50, CreLuc assay, 0.5% hP (nM)

[[record]]
binder = "YXEGTFTSDYSIXLEXKAQXEFVEWLIKGGPSSGASLRHYYNWLTRQRY (Aib at 2, 13, 16, 20; K28 side chain: C20DA-gGlu-gGlu-gGlu-gGlu-gGlu-gGlu-eLys; C-terminal NH2) [Compound 24]"
unit_text = "nM"
number = 1.77

[[record]]
binder = "Y[Aib]EGTFTSDYSI[Aib]LEKQAQ[Aib]AFVQWLIK([εLys-γGlu-γGlu-γGlu-γGlu-γGlu-C18 diacid])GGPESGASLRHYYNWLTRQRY-NH2 (also: TFA salt) [Compound 60]"
unit_text = "nM"
number = 0.08

[[record]]
binder = "YXEGTFTSDYSIXLEKQAQXAFVEWLIKGGPSEYVSIRHYYNWLTRQRY (Aib at 2, 13, 20; K28 side chain: C20DA-gGlu-gGlu-gGlu-gGlu-gGlu-gGlu-eLys; C-terminal NH2) [Compound 42]"
unit_text = "nM"
number = 0.36

